Test system: TYKNU
Test: fractional viability relative to vehicle; higher = less growth inhibition
Conditions: 10uM; 72 h; genotype: DNM1L knockout (sgDNM1L #1)
Where a name gives a salt, the structure may show the parent alone. In all, about 2,000 compounds were measured (“fractional viability relative to vehicle”: median about 0.91, lowest 2% from about 0.045 on). The entries come from a sample that favours the lowest values as a whole.
Simple rule here: fractional viability less than 0.7 is 1 (yes), otherwise 0 (no).

compound | label.value
CCCCCCCCCCCCCCCC[N+](C)(C)C [Cetrimonium Bromide (CTAB)] | 1 (yes)
CC(C)C[C@H](NC(=O)CNC(=O)c1cc(Cl)ccc1Cl)B1OC(=O)C(CC(=O)O)(CC(=O)O)O1 | 1 (yes)
COc1cc2c(NC3CCN(CC4CCCCC4)CC3)nc(N3CCCN(C(C)C)CC3)nc2cc1OCCCN1CCCCC1 | 1 (yes)
O=C(O)Cc1ccccc1Nc1c(Cl)cccc1Cl [Diclofenac Sodium] | 0 (no)
CCCc1cc2c(N3CCN(C4=NCC(C)(C)S4)CC3)ncnc2s1 | 0 (no)
C[C@H]1O[C@@H](n2cc(F)c(=O)[nH]c2=O)[C@H](O)[C@@H]1O | 0 (no)
COc1cc(Nc2c(C#N)cnc3cc(OCCCN4CCN(C)CC4)c(OC)cc23)c(Cl)cc1Cl [Bosutinib (SKI-606)] | 1 (yes)
O=C(O)Cc1ccccc1Nc1c(Cl)cccc1Cl [Diclofenac Potassium] | 0 (no)
CC(=O)Oc1ccccc1C(=O)O | 0 (no)
c1cc(-c2cnn3cc(-c4ccc(N5CCNCC5)cc4)cnc23)c2cccnc2c1 | 1 (yes)
CN1CCCN(C(=O)c2cccc(-c3ccc(/C=C4/C(=O)Nc5ccc(Cl)cc54)o3)c2)CC1 | 1 (yes)
O=C(O)C1=C[C@@H](O)[C@@H](O)[C@H](O)C1 | 0 (no)
COCC[n+]1c2c(n(Cc3cnccn3)c1C)C(=O)c1ccccc1C2=O [YM155 (Sepantronium Bromide)] | 1 (yes)
COc1cc2nc(N3CCCN(C)CC3)nc(NC3CCN(Cc4ccccc4)CC3)c2cc1OC | 1 (yes)
CCCCCCCCCCCC[N+](C)(C)CCOc1ccccc1 [Domiphen Bromide] | 1 (yes)
COc1cc2nc(N3CCCC3)nc(NCCCCCN3CCCC3)c2cc1OC | 1 (yes)
COc1cc(-c2cc(-c3ccc(N4CCNCC4)cc3)cnc2C)cc(OC)c1OC | 0 (no)
COc1cc2nc(N3CCN(C(=O)C4COc5ccccc5O4)CC3)nc(N)c2cc1OC (stereo not drawn) [Doxazosin Mesylate] | 0 (no)

* * *

The following compounds are listed with their measured fractional viability values.
System: TYKNU
Assay: fractional viability relative to vehicle; higher = less growth inhibition
Settings: 2uM; 72 h; genotype: sgCTRLA1 (non-targeting control)
Counter-ions that a name gives are not always drawn. Over roughly 2,000 compounds, “fractional viability relative to vehicle” has its median near 0.91; the lowest 2% begin near 0.045. Many of the other results were omitted from the sample, so the lowest values are more common in it than they were.

compound | study.target | fractional viability
CC(C)(Cc1ccc2ccccc2c1)NC[C@@H](O)COc1cccc(Cl)c1C#N | TYKNU | 1.1
CC[C@@H]([C@H](C)O)n1ncn(-c2ccc(N3CCN(c4ccc(OC[C@@H]5CO[C@@](Cn6cncn6)(c6ccc(F)cc6F)C5)cc4)CC3)cc2)c1=O | TYKNU | 1.13
CC(C)(C)NCC(O)COc1cccc2c1CCC(=O)N2 (configuration not stated) [Carteolol HCl] | TYKNU | 1.16
CC[C@H]1[C@@H](O)[C@@H]2[C@H](CC[C@]3(C)[C@@H]([C@H](C)CCC(=O)O)CC[C@@H]23)[C@@]2(C)CC[C@@H](O)C[C@@H]12 | TYKNU | 0.891
CNS(=O)(=O)Nc1nccc(Cc2c(C)c3ccc(Oc4ncccn4)cc3oc2=O)c1F | TYKNU | 0.304
O=C(O)CCNc1cc(N2CCc3ccccc3CC2)nc(-c2ccccn2)n1 | TYKNU | 1.07
CC(C)NCC(O)COc1cccc2ccccc12 (configuration not stated) [Propranolol HCl] | TYKNU | 1.12
Cc1ccc(NC(=O)C2(c3ccc4c(c3)OC(F)(F)O4)CC2)nc1-c1cccc(C(=O)O)c1 | TYKNU | 1.12
FC(F)(F)c1ccc(/C=C/c2nc(COc3ccc(CCCCn4ccnn4)cc3)co2)cc1 | TYKNU | 0.534
Cc1nnc(C(=O)NC(C)(C)c2nc(C(=O)NCc3ccc(F)cc3)c(O)c(=O)n2C)o1 | TYKNU | 1.07
Cc1nc2ccc(-n3ncc(C(=O)c4cc5ccccc5[nH]4)c3N)cc2[nH]1 | TYKNU | 0.923
Cc1ccc(C(=O)Nc2ccc(CN3CCN(C)CC3)c(C(F)(F)F)c2)cc1C#Cc1cnc2cccnn12 | TYKNU | 0.185
Cc1cnc(Nc2ccc(N3CCN(C)CC3)cc2)nc1Nc1cccc(S(=O)(=O)NC(C)(C)C)c1 | TYKNU | 0.472
Cc1nc(-c2cccnc2)sc1C(=O)Nc1ccccc1-c1cn2c(CN3CCOCC3)csc2n1 | TYKNU | 0.932
Cc1ccc(NC(=O)c2ccc(CN3CCN(C)CC3)cc2)cc1Nc1nccc(-c2cccnc2)n1 [Imatinib (STI571)] | TYKNU | 1.1
C=CC(=O)Nc1cccc(Nc2nc(Nc3ccc(OCCOC)cc3)ncc2F)c1 | TYKNU | 0.721
CCN1CCN(Cc2ccc(C(=O)Nc3ccc(C)c(Oc4ccc5c(c4)CC(=O)N5)c3)cc2C(F)(F)F)CC1 | TYKNU | 0.758

* * *

System: TYKNU
Test: fractional viability relative to vehicle; higher = less growth inhibition
Details: 10uM; 72 h; genotype: sgCTRLA1 (non-targeting control)
Structures can show the parent of a compound that is named as a salt. In all, about 2,000 compounds were measured (“fractional viability relative to vehicle”: median about 0.91, lowest 2% from about 0.045 on). The list comes from a sample in which the lowest values are over-represented; it also holds close analogues and randomly drawn compounds.
Simple rule here: fractional viability less than 0.8 is condition met, otherwise condition not met.

compound | label.value
O=S(=O)(NCCSSCCNS(=O)(=O)c1cc(Cl)ccc1Cl)c1cc(Cl)ccc1Cl | condition met
CC[C@H](C)C[C@H](C)CCCCCCCCC(=O)N[C@H]1C[C@@H](O)[C@@H](NCCN)NC(=O)[C@@H]2[C@@H](O)CCN2C(=O)[C@H]([C@H](O)CCN)NC(=O)[C@H]([C@H](O)[C@@H](O)c2ccc(O)cc2)NC(=O)[C@@H]2C[C@@H](O)CN2C(=O)[C@H]([C@@H](C)O)NC1=O [Caspofungin Acetate] | condition not met
O=C(O)C1=C[C@@H](O)[C@@H](O)[C@H](O)C1 [Shikimic Acid] | condition not met
CCCCCCCCc1ccc(CCC(N)(CO)CO)cc1 [Fingolimod (FTY720) HCl] | condition met
Cn1c(=O)cc(N2CCC[C@@H](N)C2)n(Cc2ccccc2C#N)c1=O [Alogliptin] | condition not met
CCCCCCCCCCCCc1ccc(S(=O)(=O)Nc2nncs2)cc1 | condition not met
CCn1cc(NC(=S)Nc2cc(Cl)ccc2OC)c(C(N)=O)n1 | condition not met

* * *

The following compounds are listed with their measured fractional viability values.
Tested on: TYKNU
Test: fractional viability relative to vehicle; higher = less growth inhibition
Details: 10uM; 72 h; genotype: DNM1L knockout (sgDNM1L #1)
Over roughly 2,000 compounds, “fractional viability relative to vehicle” has its median near 0.91; the lowest 2% begin near 0.045. What follows is part of a selection rich in the lowest values, with near analogues and random picks from the rest.

compound | fractional viability
O=C(O)c1ccc(N2C(=O)/C(=C\c3ccc(-c4ccc([N+](=O)[O-])cc4)o3)C=C2c2ccccc2)cc1 | 0.899
CCCS(=O)(=O)Nc1ccc(F)c(C(=O)c2c[nH]c3ncc(-c4ccc(Cl)cc4)cc23)c1F | 0.823
COc1ncc(-c2ccc3nccc(-c4ccnnc4)c3c2)cc1NS(=O)(=O)c1ccc(F)cc1F | 0.0665
CN(C)C/C=C/C(=O)Nc1cc2c(Nc3ccc(F)c(Cl)c3)ncnc2cc1O[C@H]1CCOC1 [Afatinib (BIBW2992)] | 0.0953
CCCSc1nc(N[C@@H]2C[C@H]2c2ccc(F)c(F)c2)c2nnn([C@@H]3C[C@H](OCCO)[C@@H](O)[C@H]3O)c2n1 | 0.492
CN(C)C/C=C/C(=O)Nc1cc2c(Nc3ccc(F)c(Cl)c3)ncnc2cc1O[C@H]1CCOC1 [Afatinib (BIBW2992) Dimaleate] | 0.77
COc1ccc2cc(OCC3(C(=O)O)CN(C(=O)c4ccc(F)cc4)C3)ccc2c1 | 0.788
Cc1nc(Nc2cnn(C3CCNCC3)c2)nc2c1N(C)C(=O)c1cc3ccccc3cc1N2C | 0.376

* * *

System: TYKNU
Assay: fractional viability relative to vehicle; TYKNU is a high-grade serous ovarian cancer line; higher = less growth inhibition
Settings: 2uM; 72 h; genotype: DNM1L knockout (sgDNM1L #1)
Structures can show the parent of a compound that is named as a salt. Over roughly 2,000 compounds, “fractional viability relative to vehicle” has its median near 0.91; the lowest 2% begin near 0.045. The full list was thinned out, with the lowest values kept by preference.
Simple rule here: fractional viability less than 0.8 is YES, otherwise NO.

compound | study.target | label.value
NC(=O)CCCSc1nc(N)nc(-c2c(Cl)cc3c4c(cccc24)COC3)n1 | TYKNU | NO
CC(=O)OCOC(=O)CN(CC(=O)OCOC(C)=O)c1ccccc1OCCOc1ccccc1N(CC(=O)OCOC(C)=O)CC(=O)OCOC(C)=O | TYKNU | YES
Cc1cc(Nc2ccc(NC(=O)c3ccc(Nc4ccnc5ccccc45)cc3)cc2)nc(N)n1 | TYKNU | YES
CCN(CC)CCNC(=O)c1c(C)[nH]c(/C=C2\C(=O)Nc3ccc(F)cc32)c1C [Sunitinib] | TYKNU | YES
Cc1c[nH]c(/C=C2\C(=O)Nc3ccccc32)c1CCC(=O)O | TYKNU | NO
NCc1c[nH]c(=S)n1[C@H]1CCc2c(F)cc(F)cc2C1 [Nepicastat (SYN-117) HCl] | TYKNU | NO
